# test name: GLP1 release stimulators, primary, NCI-H716, NPC library (AID 1117341); note: reference of the scale not given here
# test settings: NCI-H716 cells, at 10 µM
The source made the active and inactive calls.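 Rule for the calls: active = compound raises GLP1 secretion from the human gut endocrine cells, with no numeric limit stated; inactive = the rest.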
Give one outcome, nothing more. List: active, inactive

Fill in: this test's call for CCOC(=O)O[C@]1(C(=O)OCCl)CC[C@H]2[C@@H]3CCC4=CC(=O)C=C[C@]4(C)[C@H]3[C@@H](O)C[C@@]21C is ___ inactive

Each compound tested received a call. Report the one for CCCN(CCC)C(=O)C(CCC(=O)O)NC(=O)c1ccccc1 (stereo not given) . inactive

// param item: CCOC(=O)OC(C)OC1=C(C(=O)Nc2ccccn2)N(C)S(=O)(=O)c2ccccc21 (stereo not given) ; yields the recorded call inactive

Query: recorded result category for CC1CCN(CCCC(=O)c2ccc(F)cc2)CC1 in this test inactive

Check the results log: what was the call for C[C@]12CC[C@@H]3c4ccc(O)cc4CC[C@H]3[C@@H]1CCC2=O ? inactive

Outcome logged for CS(=O)(=O)c1ccc([C@@H](O)[C@@H](CO)NC(=O)C(Cl)Cl)cc1 in this assay: inactive

Kindly provide the recorded test outcome for the following compound: C[C@]12C=CC(=O)C=C1CC[C@H]1[C@@H]3C[C@@H](O)[C@](O)(C(=O)CO)[C@@]3(C)C[C@H](O)[C@@]12F inactive

Outcome logged for CCN1CCC[C@H]1CNC(=O)c1cc(S(N)(=O)=O)ccc1OC in this assay: inactive

Hello, I am checking results. What call was entered for CC(=O)[C@@]1(O)CC[C@H]2[C@@H]3C[C@H](C)C4=CC(=O)C=C[C@]4(C)[C@@]3(F)[C@@H](O)C[C@@]21C ? inactive

Which result was noted for this compound in the test: OCC(O)CN1CCN(c2ccccc2)CC1 (stereo not given) inactive

Per the assay record, what outcome was assigned to CC1(C)OC(=O)NC1=O ? inactive

Record lookup: outcome of this test for CC(=O)O[C@]1(C(C)=O)CC[C@H]2[C@@H]3C=C(Cl)C4=CC(=O)[C@@H]5C[C@@H]5[C@]4(C)[C@H]3CC[C@@]21C ? inactive

Outcome? CNCCCCOc1ccccc1Cc1ccccc1 inactive

Query: recorded result category for CN1CCN(C(c2ccccc2)c2ccccc2)CC1 in this test inactive

Returns: the outcome recorded for NCC1CCC(C(=O)O)CC1 (stereo not given) in this assay. inactive

// param item: COc1ccnc(CS(=O)c2nc3ccc(OC(F)F)cc3[nH]2)c1OC (stereo not given) ; yields the recorded call inactive

Answer briefly: the call reported for CN(Cc1cnc2nc(N)nc(N)c2n1)c1ccc(C(=O)N[C@@H](CCC(=O)O)C(=O)O)cc1 in this assay. inactive

So what was the verdict on CN(CCCN1c2ccccc2CCc2ccccc21)CC(=O)c1ccc(Cl)cc1 in this test? inactive

Identify the outcome logged in this assay for the compound shown: O=C(O)[C@@H]1[C@H]2C[C@H]3c4[nH]c5ccccc5c4CCN3C[C@@H]2CC[C@@H]1O inactive

Field: outcome | Entry: CC(=O)OC(C)C[N+](C)(C)C (stereo not given) active

Call for entry COc1ccc(CC2c3cc(OC)c(OC)cc3CC[N+]2(C)CCC(=O)OCCCCCOC(=O)CC[N+]2(C)CCc3cc(OC)c(OC)cc3C2Cc2ccc(OC)c(OC)c2)cc1OC (stereo not given) : inactive

I'd appreciate the recorded outcome for CCCCCC(C)N (stereo not given) from this test. inactive

Test call for this compound, please: Oc1c(I)cc(I)c2cccnc12 inactive

Could you kindly confirm the outcome this assay logged for CCOC(=O)c1ccc(N)cc1 ? inactive

So what was the verdict on O=c1cc(CO)occ1O in this test? inactive

Called result for CC(=O)Nc1ccccc1 inactive

Status in this test for CCCN1CCCC[C@H]1C(=O)Nc1c(C)cccc1C ? inactive

Per the records of this test, what outcome belongs to COc1cccc(OC)c1C(=O)N[C@@H]1C(=O)N2[C@@H]1SC(C)(C)[C@@H]2C(=O)O ? inactive

For CCCCCCCCCCCCCCCCC(C(=O)O)C(O)(CC(=O)O)C(=O)O (stereo not given) , what call appears in the results of this test? inactive

For this compound, state the assay outcome: O=NN(CCCl)C(=O)NC1CCCCC1 inactive

What did this assay record as the result for CCCCCCCCCCCCCCCCCCOCC(O)CO (stereo not given) ? active

Short answer needed: outcome of this test for C=CCSCC1Nc2cc(Cl)c(S(N)(=O)=O)cc2S(=O)(=O)N1 (stereo not given) ? inactive

Tell me the assay call for COc1cc2c3cc1Oc1cc(ccc1O)C[C@@H]1c4c(cc(OC)c(O)c4Oc4ccc(cc4)C[C@@H]3N(C)CC2)CC[N+]1(C)C please. inactive

State the result this test recorded for CN1CCC(=C2c3ccccc3CC(=O)c3sccc32)CC1 . inactive

Query: recorded result category for CNC[C@H](O)c1cccc(O)c1 in this test inactive

Field: outcome | Entry: CCCCN(CCCC)CCCOC(=O)c1ccc(N)cc1 inactive

Record lookup: outcome of this test for Cc1cc(NC(=O)C2=C(O)c3ccccc3S(=O)(=O)N2C)no1 ? inactive

Call for entry Oc1ccc(C2CNCCc3c2cc(O)c(O)c3Cl)cc1 (stereo not given) : inactive

Which outcome was entered for the compound CCC(C)n1ncn(-c2ccc(N3CCN(c4ccc(OC[C@H]5CO[C@](Cn6cncn6)(c6ccc(Cl)cc6Cl)O5)cc4)CC3)cc2)c1=O (stereo not given in full) in this test? inactive

Call for entry C#CCN[C@@H]1CCc2ccccc21 : inactive

Outcome logged for C=CC(N)CCC(=O)O (stereo not given) in this assay: inactive

Could you kindly confirm the outcome this assay logged for CN1[C@@H]2CC[C@H]1CC(OC(=O)c1c[nH]c3ccccc13)C2 (stereo not given in full) ? inactive

State the result this test recorded for Nc1nc2c(ncn2CCC(CO)CO)c(=O)[nH]1 . inactive

Record lookup: outcome of this test for CN1Cc2c(N)cccc2C(c2ccccc2)C1 (stereo not given) ? inactive

Query: recorded result category for CCN(CCCc1ccccc1)CCCc1ccccc1 in this test inactive

Where these numbers come from: PubChem BioAssay
